Values compiled from patent US20240174684A1.

Procedure details: Pharmacokinetics in C57BL/6 female mice, IV and PO
Assay type: in vivo
Experimental context: mouse; PO 30 mg/kg, plasma, C57BL/6 female mice
Measurement type: Tmax
The number alone won't do; follow it with the unit.

// query Need Tmax of Cc1nc(N2C[C@@H](CC(=O)Nc3ccc(-c4ccccc4)cc3)C[C@H]2C(=O)O)c2oc3ccccc3c2n1 [Compound 5] , thanks.
// result 30 min

###

Procedure details: Metabolic stability in human hepatocytes
Type: in vitro ADME
Experimental context: read-out: Human MS Stability t1/2
Procedure: ADME studies: Compound A and the compounds of the disclosure were tested for aqueous solubility (KSOL), metabolic stability (human and mouse […]) and permeability (Caco-2 and/or MDR1-MDCK cells) to provide an initial indication of oral bioavailability. The favorable physicochemical properties are reflected in promising results in in vitro ADME tests. […]
Measurement type: half-life

Reference set, count: 6
Cc1nc(N2C[C@@H](CC(=O)Nc3cccc(-c4ccccc4)c3)C[C@H]2C(=O)O)c2oc3ccccc3c2n1 ... > 5 h
Cc1nc(N2C[C@@H](CC(=O)Nc3ccc(-c4ccccc4)c(C(F)(F)F)c3)C[C@H]2C(=O)O)c2oc3ccccc3c2n1 ... 1.67 to 3.33 h
C#Cc1ccc(NC(=O)C[C@H]2C[C@@H](C(=O)O)N(c3nc(C)nc4c3oc3ccccc34)C2)cc1 ... 1.67 to 3.33 h
COc1cc(NC(=O)C[C@H]2C[C@@H](C(=O)O)N(c3nc(C)nc4c3oc3ccccc34)C2)ccn1 ... > 5 h
Cc1nc(N2C[C@@H](CC(=O)N(C)C3CCCC3)C[C@H]2C(=O)O)c2oc3ccccc3c2n1 ... > 5 h
Cc1nc(N2C[C@@H](CC(=O)Nc3ccc4[nH]ccc4c3)C[C@H]2C(=O)O)c2oc3ccccc3c2n1 ... > 5 h

Let us examine a further case.
// query Need half-life of Cc1nc(N2C[C@@H](CC(=O)Nc3ccc(-c4cccc5[nH]ncc45)cc3)C[C@H]2C(=O)O)c2oc3ccccc3c2n1 , thanks.
// result 1.67 to 3.33 h
